I'd appreciate it if you could supply IC50 values for the items below.
System: YAP/TAZ-TEAD transcription
assayRemarks: Reporter gene assay for measuring the inhibition of YAP/TAZ-TEAD transcription (TEAD-responsive element luciferase reporter in Hek293T cells)
Assay type: cell-based
conditionSummary: Homo sapiens, HEK-293T, 24 h, 24 hours incubation

// known answers, use as guide
compound	IC50
CC(=O)N1CCN2c3ncccc3N(c3ccc(C(F)(F)F)cc3)CC2C1 (single isomer, unassigned)	< 1 µM
CC(=O)NCC1CN(c2ccc(C(F)(F)F)cc2)c2cccnc2S1(=O)=O (stereo not drawn)	> 10 µM
CC(=O)NCC1CN(c2ccc(C(F)(F)F)cc2)c2ccc(C(F)(F)F)nc2O1 (stereo not drawn)	1 to 10 µM
C=CC(=O)N1CCN2C(=O)CN(c3ccc(C(F)(F)F)cc3)CC2C1 (stereo not drawn)	< 1 µM

Quick one: give me IC50 for each item below, same order please.
1. C=CC(=O)NC[C@H]1CN(c2ccc(C(F)(F)F)cc2)c2cccnc2N1
2. CN(c1ccc(C(F)(F)F)cc1)c1ccccc1N1CCC(C(=O)O)CC1
3. NC(=O)C1CCN2c3ccccc3N(c3ccc(C(F)(F)F)cc3)CC2C1 (stereo not drawn) [117B-En1]
4. CC(=O)NCC1CN(c2ccc(C(F)(F)F)cc2)c2ccc(C(F)F)nc2O1 (stereo not drawn)
5. CC(=O)NC[C@H]1CN(c2ccc(C(F)(F)F)cc2)c2cccnc2N1
6. O=C(O)C1CCN2c3cc(Cl)ccc3N(c3ccc(C(F)(F)F)cc3)CC2C1 (stereo not drawn)

< 1 µM
1 to 10 µM
< 1 µM
< 1 µM
< 1 µM
< 1 µM

Origin of the recorded values: patent US20240409556A1
